- Test system: OVCAR-4 ovarian
- Experiment description: NCI tumour cell line growth inhibition, 48 h

Compound	Target under test	TGI
CC1C2CC(C(C3C(=O)C4CC3C(C)(C)C4C)C2=O)C1(C)C (stereo not given)	OVCAR-4 ovarian	> 100 µM
N#Cc1c(-c2ccccc2)c(C#N)c(=O)n(NS(=O)(=O)c2ccccc2)c1O	OVCAR-4 ovarian	> 100 µM
CC(C#N)Nc1ccc(Oc2ccc(C(C)(C)c3ccc(Oc4ccc(NC(C)C#N)cc4)cc3)cc2)cc1 (stereo not given)	OVCAR-4 ovarian	> 100 µM
CC(C)=CC(=O)Cc1nc2ccccc2[nH]c1=O	OVCAR-4 ovarian	> 100 µM
CSc1nc(C)cc(Nc2ccc(O)c(CN3CCCCC3)c2)n1	OVCAR-4 ovarian	> 100 µM

----------
- System: SK-MEL-5 melanoma
- Experiment description: NCI tumour cell line growth inhibition, 48 h
Recorded measurements of TGI, one per entry
Reported metric: TGI (µM)

Compound	Reported metric	Qualifier sign	Obs value
O=S(=O)(O)C(F)(F)C(F)(F)C(F)(F)C(F)(F)F	TGI	>	100
Cc1ccc(S(=O)(=O)N/N=C2\C(=O)C3CC2C(Cl)C3Cl)cc1 (stereo not given)	TGI	>	100
C[C@]12CC[C@H]3[C@@H](CCC4=CC(=O)CC[C@@H]43)[C@@H]1CC[C@@H]2OC1(O)C(=O)c2ccccc2C1=O	TGI	=	35
CN1C(c2ccccc2)CC(=Nc2ccccc2)CC1c1ccccc1 (stereo not given)	TGI	=	22.8
CNC(=O)c1cc(Oc2ccc3nc(NC(=O)Nc4ccc(Cl)c(Cl)c4)sc3c2)ccn1	TGI	=	5.58
CC1(C)OC2C(CO)OC(n3ccc(=O)[nH]c3=O)C2O1 (stereo not given)	TGI	>	100
COc1cc2c(/C=C3/C(=O)Nc4ccccc43)c(Cl)n(Cc3ccccc3)c2cc1C	TGI	>	100
O=C(O)C(/C=C/c1ccco1)=N\Nc1nc(-c2ccc(Cl)cc2)cs1	TGI	>	50
Cc1ccc(-c2c(C#N)c(-c3ccc(N(C)C)cc3)c(C#N)c(=O)n2NS(=O)(=O)c2ccccc2)cc1	TGI	=	36.8
C#Cc1cccc(NC(=O)Nc2ccc(NC(=O)CCl)cc2)c1	TGI	=	28.7
c1ccc(-c2nc(Nc3ccc(-c4nc5ccccc5[nH]4)cc3)nc(N3CCOCC3)n2)cc1	TGI	=	3.15
N#C/C(=C\c1ccc(Cl)cc1)c1nc2ccccc2c(=O)[nH]1	TGI	>	100
O=C(CC(=O)Nc1ccc(Cl)cc1)NNCC(=O)Nc1nc(-c2ccccc2)cs1	TGI	>	100
CC(SC1=CC(=O)c2c(Cl)ccc(O)c2C1=O)C(=O)O (stereo not given)	TGI	=	27.5
CCN(CC)CCC(=O)Nc1cccc2c1C(=O)c1c(c(O)c3ccccc3c1O)C2=O	TGI	>	100

----------
- Test system: BT-549 breast
- Experiment description: NCI tumour cell line growth inhibition, 48 h
Reported metric: TGI

Compound	Reported metric	Obs value
Cc1c(C(=O)/C=C/c2ccc(O)cc2)nnn1-c1ccnc2c(C(F)(F)F)cccc12	TGI	> 100 µM
N#Cc1cnn2c1n[n+]([O-])c1ccc(Cl)cc12	TGI	25.4 µM
CCN(CC)c1ccc(/C=C/C2=NN(c3cccc(S(=O)(=O)O)c3)C3(C2)C(Cl)C(=O)N3c2nc3ccccc3s2)cc1 (stereo not given)	TGI	22.7 µM
CC1(C)OC2C(CO)OC(n3ccc(=O)[nH]c3=O)C2O1 (stereo not given)	TGI	> 100 µM
CC(=O)OCC(OC(C)=O)C(OC(C)=O)C(/C=N/N(C(C)=O)S(=O)(=O)c1ccc(/C=C2\NC(=O)NC2=O)cc1)OC(C)=O (stereo not given)	TGI	> 100 µM
O=c1cc(-c2ccc(O)c(O)c2)oc2cc(OC3OC(CO)C(O)C(O)C3O)cc(O)c12 (stereo not given)	TGI	> 100 µM
CCCCCCCCCC(=O)OCC1(CO)C/C(=C/CC(C(C)C)C(C)C)C(=O)O1 (stereo not given)	TGI	> 100 µM
Cc1ccc2c(ccc3c[n+]4ccccc4c(C)c32)c1	TGI	5.74 µM
C/C(C=O)=N\Nc1cc(C)c2ccccc2n1	TGI	26.6 µM
Oc1ccccc1C=Nc1ccc(Oc2ccc(Cl)cc2)c(Cl)c1	TGI	44.4 µM
COc1cc2c(cc1OCCCCCOc1cc(-c3ccc(F)cc3)nc(C)n1)N=C[C@@H]1CCCN1C2=O	TGI	> 61.1 µM
CCN(CC)CCC(=O)Nc1cccc2c1C(=O)c1c(c(O)c3ccccc3c1O)C2=O	TGI	52.3 µM
OCCNc1nc(NCCO)nc(Nc2ccc(C3=NN(c4cc(Cl)cc(Cl)c4)C(c4ccc(Cl)cc4)C3)cc2)n1 (stereo not given)	TGI	3.8 µM
CN(C)c1ccc(C2CC(=O)CC(c3ccc(N(C)C)cc3)C23C(=O)NC(=O)NC3=O)cc1 (stereo not given)	TGI	> 25 µM
Cc1ccc(-c2c(C#N)c(-c3ccc(N(C)C)cc3)c(C#N)c(=O)n2NS(=O)(=O)c2ccccc2)cc1	TGI	> 100 µM
O=C(O)C(/C=C/c1ccco1)=N\Nc1nc(-c2ccc(Cl)cc2)cs1	TGI	> 50 µM
O=c1c2cc(Br)ccc2oc2ccc(Br)cc12	TGI	> 100 µM
Cc1cccc(C(C)O)n1 (stereo not given)	TGI	> 100 µM
COC(=O)C1=CN(CC2=CC(=O)C(C)=CC2=O)C=C(C(=O)OC)C1c1cccc(OC)c1OC	TGI	> 100 µM
O=C(O)CC(Cc1ccc2c(c1)OCO2)C(=O)O (stereo not given)	TGI	> 100 µM

----------
- Test system: MCF7 breast
- Experiment description: NCI tumour cell line growth inhibition, 48 h

Molecule	TGI
CCN(CC)c1ccc(/C=C/C2=NN(c3cccc(S(=O)(=O)O)c3)C3(C2)C(Cl)C(=O)N3c2nc3ccccc3s2)cc1 (stereo unspecified)	21.1 µM
N#C/C(=C\c1ccc(Cl)cc1)c1nc2ccccc2c(=O)[nH]1	> 100 µM
COC(=O)c1c2c(c(C)[n+]([O-])c1C)C(=O)C=C(NCc1ccc(Cl)cc1)C2=O	0.98 µM
Cc1c(C(=O)/C=C/c2ccc(O)cc2)nnn1-c1ccnc2c(C(F)(F)F)cccc12	> 100 µM
Oc1ccccc1C=Nc1ccc(Oc2ccc(Cl)cc2)c(Cl)c1	> 100 µM
COc1ccc(NS(=O)CCc2ccccc2)cc1 (stereo unspecified)	> 100 µM
CC(=O)OCC(OC(C)=O)C(OC(C)=O)C(/C=N/N(C(C)=O)S(=O)(=O)c1ccc(/C=C2\NC(=O)NC2=O)cc1)OC(C)=O (stereo unspecified)	> 100 µM
Cc1ccc2c(ccc3c[n+]4ccccc4c(C)c32)c1	15.6 µM
COc1ccc(Cl)cc1N1C(=O)C(Cl)=C(Nc2cccc(O)c2)C1=O	41.5 µM
C1CSCC2(COC2)CS1	> 100 µM
CCCCCCC(N)(CCCCCC)C(=O)Nn1c(C)ccc1C	59.4 µM
COc1cc2c(/C=C3/C(=O)Nc4ccccc43)c(Cl)n(Cc3ccccc3)c2cc1C	> 100 µM
Cc1c(-c2ccccc2)c(-c2ccc(OCCN(C)C)cc2)n2ccccc12	23.7 µM
CC1=NC(=Cc2ccc(Cl)cc2)C(=O)N1n1c(-c2ccccc2)nc2ccccc2c1=O	> 100 µM
COc1ccc(C2CC(=O)Nc3c2c(C)nn3-c2nc3ccccc3[nH]2)cc1 (stereo unspecified)	> 34 µM
Cc1[nH]c2ncn(/N=C/c3ccccc3)c(=N)c2c1Cc1ccccc1	> 100 µM
CC1C(=O)N=C2C(=CN(Cc3ccccc3)c3ccccc32)C(=O)N1C (stereo unspecified)	> 100 µM
COc1ccc(/C=C/C(=O)NCC(NC(=O)/C=C/c2ccc(OC)c(OC)c2)C(=O)O)cc1OC (stereo unspecified)	> 100 µM
CC(C#N)Nc1ccc(Oc2ccc(C(C)(C)c3ccc(Oc4ccc(NC(C)C#N)cc4)cc3)cc2)cc1 (stereo unspecified)	> 100 µM
CC1(C)OC2C(CO)OC(n3ccc(=O)[nH]c3=O)C2O1 (stereo unspecified)	> 100 µM
CSC1=N/C(=C\c2cccs2)C(=O)N1CN1CCCCC1	> 100 µM

----------
- Tested on: A549 NSCLC
- Experiment description: NCI tumour cell line growth inhibition, 48 h

Molecule	TGI
CSC1=N/C(=C\c2cccs2)C(=O)N1CN1CCCCC1	> 100 µM
O=S(=O)(CC1=NC2C=CC=CC2N=C1)NCc1ccccc1 (stereo unspecified)	> 100 µM
CCC(=O)N(c1ccccc1)C(C)CN1CCC(O)(c2ccccc2)CC1 (stereo unspecified)	> 100 µM
CC(=O)c1c2c(cc3c1CC1(Cc4cc5c(cc4C1)CCC5)C3)CCC2	> 100 µM
COc1ccc(Cl)cc1N1C(=O)C(Cl)=C(Nc2cccc(O)c2)C1=O	59.2 µM
COc1ccc2c(OC)c3ccoc3nc2c1O	> 100 µM

----------
- Tested on: M14 melanoma
- Experiment description: NCI tumour cell line growth inhibition, 48 h; in the data active means GI50 below about 0.43 µM; inactive means the rest
Classes used: Yes (active), No (inactive)

Molecule	Class name
O=C(CNC(=O)c1cccc2ccccc12)Nc1ccccc1Oc1cccc(O)c1	No
O=[N+]([O-])c1cccc(-c2nc3sccn3c2-c2ccnc(NCCCNS(=O)(=O)c3ccc(F)cc3)n2)c1	No
Nc1nc(-n2cccn2)nc(-n2cccn2)c1Br	No
COc1ccc(-c2ccc(/C=N/n3cn[nH]c3=S)o2)c([N+](=O)[O-])c1	No
O=C1N=C2c3c(sc4c3CCCC4)N=CN2C1N=Nc1ccc(Cl)cc1 (stereo not given)	No
CN(C)c1cccc2[nH]c(-c3[nH]ncc3Nc3ccnc(N)n3)nc12	Yes
CC(=O)OCC(=O)[C@@]1(O)[C@H](C)C[C@H]2[C@@H]3C=C(C)C4=Cc5c(cnn5-c5ccc(F)cc5)C[C@]4(C)[C@H]3[C@@H](O)C[C@@]21C	No
CCOC(=O)c1sc(=S)c2c(C(=O)c3ccccc3)c(C(=O)c3ccccc3)sc2c1C(=O)OCC	No
N#Cc1nc(-c2cccc(Br)c2)cc(-c2ccc(Nc3nc(N4CCCCC4)nc(N4CCCCC4)n3)cc2)c1N	No
COC(=O)c1c2c(c(C)[n+]([O-])c1C)C(=O)C=C(NCc1ccc(Cl)cc1)C2=O	Yes

All values here come from PubChem BioAssay (NCI).
